Hi there, I'd appreciate the recorded % Diss for every entry that follows.
biological target: T1, HSP70 (human HSP70; the antigen of the binning, humanization and variant binding assays) (human, UniProt P0DMV8 1-641, limits assumed); experiment: BLI, anti-human Fc capture, antigen 100 nM
T1 construct: also called hu HSP70
T1 sequence (P0DMV8 whole entry, change not shown): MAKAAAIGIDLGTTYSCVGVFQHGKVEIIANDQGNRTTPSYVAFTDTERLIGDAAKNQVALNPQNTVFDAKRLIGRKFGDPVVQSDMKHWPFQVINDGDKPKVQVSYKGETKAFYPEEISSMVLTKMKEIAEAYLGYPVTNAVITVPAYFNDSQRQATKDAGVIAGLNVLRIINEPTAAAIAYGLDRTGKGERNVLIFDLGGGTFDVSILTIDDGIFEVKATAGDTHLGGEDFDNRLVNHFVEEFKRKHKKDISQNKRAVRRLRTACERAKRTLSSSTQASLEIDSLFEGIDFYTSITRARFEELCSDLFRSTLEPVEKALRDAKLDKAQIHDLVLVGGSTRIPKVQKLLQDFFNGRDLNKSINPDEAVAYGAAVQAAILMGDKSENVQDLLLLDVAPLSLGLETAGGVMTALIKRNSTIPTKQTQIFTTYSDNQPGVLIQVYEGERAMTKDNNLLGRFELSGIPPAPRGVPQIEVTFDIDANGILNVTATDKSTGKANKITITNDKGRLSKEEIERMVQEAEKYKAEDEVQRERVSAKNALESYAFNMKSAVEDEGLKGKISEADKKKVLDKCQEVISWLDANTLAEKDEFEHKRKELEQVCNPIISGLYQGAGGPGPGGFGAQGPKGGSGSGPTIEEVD

Record excerpt, results attached:
| binder | % Diss |
| --- | --- |
| h77A-1.77 (antibody, V domains shown, captured by anti-human Fc) VH: QIQLVQSGPEVKKPGASVKVSCKASGYIFTNYGMNWVRQAPGQGLEWMGWINTYTGEPTYGDDFKGRFTFTTDTSTSTAYMELRSLRSDDTAVYFCGRYDHAMDYWGQGTLVTVSS VL: EIVLTQSPDSLAVSLGERATINCKSSQSLLNSGTRKNYLAWYQQKAGQSPKLLIYWTSTRESGVPDRFSGSGSGTDFTLTIDRLQAEDVAVYYCKQSYTLYTFGGGTKVEIK | 32.5% |
| h77A-1.16 (antibody, V domains shown, captured by anti-human Fc) VH: QIQLVQSGAEVKKPGASVKVSCKASGYTFTKYGMNWVRQAPGQGLEWMGWINTYTGEPTYADDFKGRFTFTTDTSTSTAYMELRSLRSDDTAVYFCARYDHAMDYWGQGTLVTVSS VL: EIVLTQSPDSLAVSLGERATIKCKSSQSLLNSGTRKNYLAWYQQKAGQSPKLLIYWTSTRESGVPDRFSGSGSGTDFTLTIDSLQAEDVAVYYCKQSYTLYTFGGGTKVEIK | 3.25% |

With those in mind, consider the next binder.
Input line: Need % Diss, item h77A-1.91 (antibody, V domains shown, captured by anti-human Fc) VH: QIHLVQSGAEVKKPGASVKVSCKASGYIFTNYGMNWVRQAPGQGLEWMGWINTYTGEPTYADDFKGRFTFTTDTSTSTVYMELRSLRSDDTAVYFCVRYDHAMDYWGQGTLVTVSS VL: EIVLTQSPDSLSVSLGERATINCKSSQSLFNSGTRKNYLAWYQQKAGQSPKLLIYWTSTRESGVPDRFSGSGSGTDFTLTIDSLQAEDVAVYYCKQSYTLYTFGGGTKVEIK
Output line: 30.7%
